compounds and their reported IC50
- Target Or Test System: Recombinant Cat D (Homo sapiens (Human))
- Sequence (P07339 65-412): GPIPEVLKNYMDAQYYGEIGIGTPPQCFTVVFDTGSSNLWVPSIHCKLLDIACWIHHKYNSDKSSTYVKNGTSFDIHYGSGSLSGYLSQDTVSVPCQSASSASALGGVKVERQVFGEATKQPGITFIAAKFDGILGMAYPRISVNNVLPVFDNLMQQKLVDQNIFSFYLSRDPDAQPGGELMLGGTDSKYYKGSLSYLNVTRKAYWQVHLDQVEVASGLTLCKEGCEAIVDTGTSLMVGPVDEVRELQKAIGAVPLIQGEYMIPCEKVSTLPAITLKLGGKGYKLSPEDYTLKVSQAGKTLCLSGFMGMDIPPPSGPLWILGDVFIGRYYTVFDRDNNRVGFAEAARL
- Assay Name: In vitro enzymatic Cathepsin D (Cat D) FRET assay
- Type: biochemical
- Setup Conditions: read-out: IC50 IP (μM) CatD
- Procedure: In Vitro Enzymatic Cathepsin D (Cat D) FRET (Fluorescence Resonance Energy Transfer) Assay Recombinant Cat D was expressed in CHO cells. The assay buffer for CathepsinD is 0.05 M citrate pH 3.5, 10% DMSO final, 5 mM CHAPS. […] The FRET assay is terminated with by addition of Tris buffer, which raises the pH to neutrality, and the fluorescence is determined. […] Proteolytic cleavage of the FRET substrate releases quenching of fluorescence (Cat D excitation 500 nm and emission 580 nm).
State just the number; it will be interpreted in µM.

• COC[C@]12C[C@H]1[C@@](C)(c1cc(NC(=O)c3cnc(OCC4CCO4)cn3)cc(F)c1F)N=C(N)S2 (stereo partly shown) = 1140
• C#CCOc1cnc(C(=O)Nc2cnc(OC)c([C@@]3(C)N=C(N)S[C@@]4(C#N)C[C@H]43)c2)cn1 = 98.9
• [2H]C([2H])([2H])OC[C@]12C[C@H]1[C@@](C)(c1cc(Nc3nccc4nc(OC([2H])([2H])C#C)cnc34)cnc1F)N=C(N)S2 = 1240

Turning to the following compound.
So for C[C@H](Oc1cnc2c(Nc3cc(F)c(F)c([C@@]4(C)N=C(N)S[C@@]5(C#N)C[C@H]54)c3)nccc2n1)c1ncco1 , the logged IC50 turned out to be 209
